FYI, the data here is from the CombiSolv-Exp solvation set (Vermeire and Green 2021).

Assay summary: solvent given as SMILES
Test settings: in CCN(CC)CC
Property measured: solvation free energy, 298 K

{"columns": ["Structure notation", "Property measured", "Result"],
 "data": [
  ["Cc1ccccc1", "solvation free energy, 298 K", "-4.93 kcal/mol"],
  ["CCCC(C)C", "solvation free energy, 298 K", "-3.81 kcal/mol"],
  ["C1CCCCC1", "solvation free energy, 298 K", "-4.23 kcal/mol"],
  ["CC(C)CC(C)C", "solvation free energy, 298 K", "-4.26 kcal/mol"]
]}

---

Assay summary: solvent given as SMILES
Test settings: in C1CCOC1

{"columns": ["Structure notation", "Unit of measurement", "solvation free energy, 298 K"],
 "data": [
  ["ClCCl", "kJ/mol", -17.9],
  ["c1ccc2c(c1)Cc1ccccc1O2", "kJ/mol", -45.7],
  ["COc1cc(Cc2cnc(N)nc2N)cc(OC)c1OC", "kJ/mol", -83.4],
  ["CCCO", "kJ/mol", -21.8],
  ["O=C(C(=O)c1ccccc1)c1ccccc1", "kJ/mol", -52.8],
  ["CN(C)C(=O)Nc1ccc(Cl)cc1", "kJ/mol", -57.5],
  ["Fc1ccccc1", "kJ/mol", -20.7],
  ["c1ccc2c(c1)Nc1ccccc1S2", "kJ/mol", -61.3],
  ["c1ccccc1", "kJ/mol", -19.9],
  ["CCCCc1ccccc1", "kJ/mol", -30.7],
  ["CC(=O)Nc1ccc(O)cc1", "kJ/mol", -67.4],
  ["O=C(O)c1cccc(Cl)c1", "kJ/mol", -46.8],
  ["CC(C)CC(C)C", "kJ/mol", -17.4],
  ["O=C1c2ccccc2C(=O)c2c(Cl)cccc21", "kJ/mol", -62.7],
  ["C1CCCCC1", "kJ/mol", -17.7],
  ["O=O", "kJ/mol", 3.43],
  ["CCF", "kJ/mol", -7.49],
  ["ClCCCl", "kJ/mol", -21],
  ["Brc1ccccc1", "kJ/mol", -27],
  ["Cc1ccccc1C(=O)O", "kJ/mol", -38.9],
  ["CC(C)(C)c1ccccc1", "kJ/mol", -29],
  ["CCCCCO", "kJ/mol", -27.7],
  ["O=C(O)c1cc([N+](=O)[O-])cc([N+](=O)[O-])c1", "kJ/mol", -62.4],
  ["CCCC(C)C", "kJ/mol", -15.5],
  ["COCCO", "kJ/mol", -22.8],
  ["CCCC=O", "kJ/mol", -18.5],
  ["O=C=O", "kJ/mol", -4.69],
  ["FC(Cl)(Cl)C(F)(Cl)Cl", "kJ/mol", -20.2],
  ["C1CCNCC1", "kJ/mol", -21.8],
  ["Cc1ccccc1", "kJ/mol", -22.8],
  ["[2H][2H]", "kJ/mol", 6.15],
  ["Fc1c(F)c(F)c(F)c(F)c1F", "kJ/mol", -18.8],
  ["ClC(Cl)(Cl)Cl", "kJ/mol", -19.5],
  ["CC(=O)Oc1ccccc1C(=O)O", "kJ/mol", -59.9],
  ["Clc1ccccc1Cl", "kJ/mol", -29.7],
  ["O=S=O", "kJ/mol", -16.4],
  ["FS(F)(F)(F)(F)F", "kJ/mol", 0.209],
  ["CC(C)CC(C)(C)C", "kJ/mol", -19.5],
  ["COC(=O)c1ccc(O)cc1", "kJ/mol", -52.2]
]}
